Collected pEC50 values appear next to each entry.
- ASSAYED_SYSTEM: hGLP-1R (Homo sapiens)
- Sequence (P43220 24-463): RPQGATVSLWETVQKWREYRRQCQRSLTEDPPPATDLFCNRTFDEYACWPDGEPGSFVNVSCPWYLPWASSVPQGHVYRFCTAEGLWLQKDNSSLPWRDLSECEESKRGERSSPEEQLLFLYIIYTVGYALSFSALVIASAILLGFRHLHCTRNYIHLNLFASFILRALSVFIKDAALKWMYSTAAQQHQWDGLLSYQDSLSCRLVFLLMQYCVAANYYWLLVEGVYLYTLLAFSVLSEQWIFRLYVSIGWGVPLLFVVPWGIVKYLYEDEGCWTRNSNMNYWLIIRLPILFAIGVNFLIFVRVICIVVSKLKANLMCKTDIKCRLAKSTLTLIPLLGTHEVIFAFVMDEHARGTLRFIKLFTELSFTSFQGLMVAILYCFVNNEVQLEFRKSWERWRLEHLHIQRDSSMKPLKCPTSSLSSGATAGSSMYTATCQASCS
- ASSAY_SUMMARY: Functional cAMP activity in the presence of 1% HSA
- Assay type: cell-based
- CONDITIONS_USED: read-out: cAMP Rel EC50, hGLP-1R
Starred links: 1 amine or outer side, 2 acyl side, 3 side chain; linkers in the order of their positions; H or OH if unused. Non-standard residues stand in square brackets, D forms with d. Groups on a side chain read outwards from the residue. No end group written: not given here. *: point of attachment. C20 diacid = O=C(O)CCCCCCCCCCCCCCCCCCC(=O)*; C18 diacid = O=C(O)CCCCCCCCCCCCCCCCC(=O)*; Phe(4-CN) = N#Cc1ccc(C[C@H](N)C(=O)O)cc1; αMePhe(2-F) = C[C@](N)(Cc1ccccc1F)C(=O)O; γGlu = O=C(O)[C@H](CCC(=O)[*:2])N[*:1]; αMe4Pal = C[C@](N)(Cc1ccncc1)C(=O)O; αMeY = C[C@](N)(Cc1ccc(O)cc1)C(=O)O; 4Pal = N[C@@H](Cc1ccncc1)C(=O)O; αMeL = CC(C)C[C@](C)(N)C(=O)O; αMeS = C[C@](N)(CO)C(=O)O; Orn = NCCC[C@H](N)C(=O)O; Dab = NCC[C@H](N)C(=O)O; AEEA = NCCOCCOCC(=O)O; Aib = CC(C)(N)C(=O)O
// pEC50: -log10(molar conc.)

Y[Aib]QGT[αMePhe(2-F)]TSD[4Pal][αMeS]I[αMeL]LD[Orn]K([AEEA-γGlu-C18 diacid])AQ[αMe4Pal]EFI[dE][αMeY]LIEGGPSSGEPPPSGE-NH2 [Example 1141]    7.32
Y[Aib]QGTFTSDFS[Dab][αMeL]LDKK([AEEA-γGlu-C18 diacid])AQ[Aib]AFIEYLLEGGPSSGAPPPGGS-NH2 [Example 67]    6.17
H-Y[Aib]QGT[αMePhe(2-F)]TSD[Phe(4-CN)]SKLLDKIAQK([AEEA-γGlu-C20 diacid])AFIEYLIEGGPSSGEPPPSGS-NH2 [Example 364]    6.59
H-Y[Aib]QGTFTSD[4Pal]SQ[αMeL]LDKK([Glu-Glu-γGlu-C18 diacid])AQ[αMe4Pal]AFIEYLIAGGPSSGAPPPSGEEE-NH2 [Example 1090]    6.21
Y[Aib]QGTFTSD[4Pal]SQ[αMeL]LD[Orn]K([AEEA-γGlu-γGlu-C18 diacid])AQ[αMe4Pal]AFIEYLIE[dA]GPSSGAPPPSGS-NH2 [Example 1016]    6.81

Moving on to another substance below.
Form: substance = Y[Aib]QGTFTSD[4Pal]SQ[αMeL]LD[Orn]K([dE-γGlu-C18 diacid])AQ[αMe4Pal]AFIQ[αMeY]LLEGGPSSGAPPPSGSEEE-NH2 [Example 1083] ; pEC50 = 6.26
